Target: P-gp (Homo sapiens)
Construct: doxorubicin resistant K562/DOX cell line overexpresses almost exclusively the transporter membrane protein P-gp; endogenous in cells; host or cells: K562/DOX (doxorubicin-selected human erythroleukemia cells)
Sequence (P08183 whole entry): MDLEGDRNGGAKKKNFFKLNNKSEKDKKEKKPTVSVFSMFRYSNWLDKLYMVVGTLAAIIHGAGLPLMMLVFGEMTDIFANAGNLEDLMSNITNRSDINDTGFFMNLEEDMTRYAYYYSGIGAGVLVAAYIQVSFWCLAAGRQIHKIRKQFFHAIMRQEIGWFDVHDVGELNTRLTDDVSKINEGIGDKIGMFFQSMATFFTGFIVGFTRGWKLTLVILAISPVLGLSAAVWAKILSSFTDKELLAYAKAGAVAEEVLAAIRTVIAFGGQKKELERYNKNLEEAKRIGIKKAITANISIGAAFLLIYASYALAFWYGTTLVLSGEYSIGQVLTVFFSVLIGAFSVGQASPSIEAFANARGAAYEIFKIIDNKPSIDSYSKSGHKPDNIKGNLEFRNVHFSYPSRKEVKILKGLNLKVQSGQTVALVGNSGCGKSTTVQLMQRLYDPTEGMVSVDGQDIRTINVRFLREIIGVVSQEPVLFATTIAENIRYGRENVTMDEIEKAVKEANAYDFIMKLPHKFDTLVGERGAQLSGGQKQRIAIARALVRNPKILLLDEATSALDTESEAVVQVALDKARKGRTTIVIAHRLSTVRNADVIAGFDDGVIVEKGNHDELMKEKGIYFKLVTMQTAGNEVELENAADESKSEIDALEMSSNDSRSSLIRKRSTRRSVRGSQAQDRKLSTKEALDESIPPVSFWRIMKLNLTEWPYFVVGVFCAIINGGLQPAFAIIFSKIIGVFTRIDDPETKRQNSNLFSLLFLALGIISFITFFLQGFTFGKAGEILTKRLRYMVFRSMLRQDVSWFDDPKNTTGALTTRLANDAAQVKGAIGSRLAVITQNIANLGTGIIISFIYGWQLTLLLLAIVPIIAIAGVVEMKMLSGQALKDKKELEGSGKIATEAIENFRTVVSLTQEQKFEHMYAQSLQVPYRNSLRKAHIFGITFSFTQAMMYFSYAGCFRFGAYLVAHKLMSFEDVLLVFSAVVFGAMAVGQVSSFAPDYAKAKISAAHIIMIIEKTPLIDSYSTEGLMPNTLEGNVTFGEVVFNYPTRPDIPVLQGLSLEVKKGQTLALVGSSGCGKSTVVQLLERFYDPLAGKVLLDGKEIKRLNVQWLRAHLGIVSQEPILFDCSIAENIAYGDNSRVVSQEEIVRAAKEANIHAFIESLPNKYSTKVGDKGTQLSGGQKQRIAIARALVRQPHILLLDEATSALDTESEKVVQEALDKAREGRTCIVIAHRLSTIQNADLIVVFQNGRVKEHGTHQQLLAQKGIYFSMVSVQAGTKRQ
Test: Rhodamine-123 uptake test on K562/DOX cells (flow cytometry)
Format: cell-based
Conditions: compound 3 µM
recorded_endpoint: FR (fluorescence ratio, Rhd 123 uptake with/without modulator)

Use these answered entries as a reference point.
compound	numeric_value
COc1cc(C(=O)OCCCCCCN(C)CCCOC(=O)COc2ccc3ccc(=O)oc3c2)cc(OC)c1OC [Compound 10]	1.16
CN(CCCCCCCOC(=O)c1c2ccccc2cc2ccccc12)CCOC(=O)c1ccc(S(N)(=O)=O)cc1 [Compound 28]	1.45
COc1cc(C(=O)OCCCCCCN(C)CCCOC(=O)c2ccc(S(N)(=O)=O)cc2)cc(OC)c1OC [Compound 24]	1.42
COc1cc(/C=C/C(=O)OCCCCCCN(C)CCCOC(=O)COc2ccc3ccc(=O)oc3c2)cc(OC)c1OC [Compound 5]	3.67
COc1cc(C(=O)OCCCN(C)CCCCCOC(=O)c2ccc(S(N)(=O)=O)cc2)cc(OC)c1OC [Compound 23]	1.00
CN(CCCCCOC(=O)c1ccc(S(N)(=O)=O)cc1)CCCOC(=O)c1c2ccccc2cc2ccccc12 [Compound 26]	2.10

a. COc1cc(/C=C/C(=O)OCCCCCCCN(C)CCOC(=O)COc2ccc3ccc(=O)oc3c2)cc(OC)c1OC [Compound 7]
b. COc1cc(/C=C/C(=O)OCCCCCCCN(C)CCOC(=O)c2ccc(S(N)(=O)=O)cc2)cc(OC)c1OC [Compound 21]
# argmax over FR (fluorescence ratio, Rhd 123 uptake with/without modulator) for candidates a and b Select an item and report its label. a
(a: 2.08, b: 1.30)
